Just for reference, patent US7524853B2 is where these values come from.

target: 17β-hydroxysteroid dehydrogenase type 3 (17β-HSD type 3) (Homo sapiens, UniProt P37058); construct: expressed in transfected cells; host or cells: MCF-7; test: Inhibition of 17β-HSD type 3 in MCF-7 cells stably expressing the isoenzyme (tritium labeled androstenedione conversion, HPLC); type: cell-based; details: MCF7; 1 μM test compound; MCF-7 cells expressing 17β-HSD type 3; 2 nM tritium labeled androstenedione; read-out: % Inhibition HSD3 1 μM
Sequence (P37058 whole entry): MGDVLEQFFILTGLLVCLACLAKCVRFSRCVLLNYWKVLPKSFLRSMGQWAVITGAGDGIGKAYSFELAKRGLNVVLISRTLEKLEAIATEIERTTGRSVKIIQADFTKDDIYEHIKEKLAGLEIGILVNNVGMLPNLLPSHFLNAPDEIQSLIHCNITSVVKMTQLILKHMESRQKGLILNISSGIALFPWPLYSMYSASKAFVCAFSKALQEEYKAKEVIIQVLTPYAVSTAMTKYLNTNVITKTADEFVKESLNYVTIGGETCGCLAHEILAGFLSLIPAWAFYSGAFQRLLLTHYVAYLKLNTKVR
Listing of entries alongside the reported inhibition at 1 µM.
quantity: inhibition at 1 µM (%)

[[record]]
item_smiles = "COCc1nc2sc3c(c2c(=O)n1Cc1ccccc1)CCCC3"
target_of_assay = "17β-hydroxysteroid dehydrogenase type 3 (17β-HSD type 3) (Homo sapiens, UniProt P37058)"
endpoint_result = -14.4

[[record]]
item_smiles = "COCc1nc2sc3c(c2c(=O)n1Cc1ccccc1)CCCC3=O"
target_of_assay = "17β-hydroxysteroid dehydrogenase type 3 (17β-HSD type 3) (Homo sapiens, UniProt P37058)"
endpoint_result = -1.3

[[record]]
item_smiles = "COCCn1c(-c2cc(OC)c(OC)c(OC)c2Br)nc2sc3c(O)cccc3c2c1=O"
target_of_assay = "17β-hydroxysteroid dehydrogenase type 3 (17β-HSD type 3) (Homo sapiens, UniProt P37058)"
endpoint_result = 7

[[record]]
item_smiles = "CCCCn1c(-c2cc(OC)c(OC)c(OC)c2)nc2sc3c(c2c1=O)CCC(Br)(Br)C3=O"
target_of_assay = "17β-hydroxysteroid dehydrogenase type 3 (17β-HSD type 3) (Homo sapiens, UniProt P37058)"
endpoint_result = 20.4

[[record]]
item_smiles = "COc1ccc(-c2nc3sc4c(Oc5ccccc5)c(C)ccc4c3c(=O)n2Cc2ccccc2)cc1"
target_of_assay = "17β-hydroxysteroid dehydrogenase type 3 (17β-HSD type 3) (Homo sapiens, UniProt P37058)"
endpoint_result = -4.8


* * *

Target: 17β-hydroxysteroid dehydrogenase type 3 (17β-HSD type 3) (Homo sapiens)
Construct: expressed in transfected cells; host or cells: MCF-7
Experiment: Inhibition of 17β-HSD type 3 in MCF-7 cells stably expressing the isoenzyme (tritium labeled androstenedione conversion, HPLC)
Type: cell-based
Details: MCF7; 1 μM test compound; MCF-7 cells expressing 17β-HSD type 3; 2 nM tritium labeled androstenedione; read-out: % Inhibition HSD3 1 μM
Text: Biological Testing Materials and Methods 1. Inhibition of the 17β-hydroxysteroid dehydrocienase type 1, type 2 and type 3 enzyme The compounds were screened in respect of 17β-HSD enzyme activity in vitro on established MCF-7 cell lines, each stably expressing one of the respective 17β-HSD isoenzymes. The interconversion of substrate by each isoenzyme and the 17β-HSD inhibiting activity of chemical compounds in these cell lines were detected by HPLC system. […]
Listing of entries alongside the reported inhibition at 1 µM.
quantity: inhibition at 1 µM (%)

[[record]]
compound = "COc1cc(-c2nc3sc4c(O)ccc(C)c4c3c(=O)n2Cc2ccccc2)c(Br)c(OC)c1OC [No. 686]"
unit = "%"
endpoint_result = -1.1

[[record]]
compound = "O=C1c2sc3nc(-c4ccc(Br)s4)n(Cc4ccccc4)c(=O)c3c2CCC1(Br)Br [No. 66]"
unit = "%"
endpoint_result = 0.3

[[record]]
compound = "COc1ccc(-c2nc3sc4cc(C=O)ccc4c3c(=O)n2Cc2ccccc2)cc1 [No. 17]"
unit = "%"
endpoint_result = 43.5

[[record]]
compound = "COc1ccc(-c2nc3sc4c(Oc5ccccc5)c(CO)ccc4c3c(=O)n2Cc2ccccc2)cc1 [No. 20]"
unit = "%"
endpoint_result = 9.9

[[record]]
compound = "COc1cc(-c2nc3sc4c(c3c(=O)n2Cc2ccccc2)C(C)CC(Br)C4=O)c(Br)c(OC)c1OC (stereo not shown) [No. 685]"
unit = "%"
endpoint_result = 5.1

[[record]]
compound = "COCc1nc2sc3c(c2c(=O)n1-c1ccccc1)CCCC3 [No. 36]"
unit = "%"
endpoint_result = -0.9

[[record]]
compound = "COc1cc(-c2nc3sc4c(OC(C)=O)cccc4c3c(=O)n2CC(C)C)c(Br)c(OC)c1OC [No. 118]"
unit = "%"
endpoint_result = 10.8

[[record]]
compound = "O=c1c2c3c(sc2nc(-c2cc(O)c(O)c(O)c2)n1-c1ccccc1)CCCC3 [No. 43]"
unit = "%"
endpoint_result = -2.5

[[record]]
compound = "COc1cc(-c2nc3sc4c(Cl)c(C=O)ccc4c3c(=O)n2Cc2ccccc2)c(Cl)c(OC)c1OC [No. 150]"
unit = "%"
endpoint_result = -1.1

[[record]]
compound = "CCSC1=C(C=O)CCc2c1sc1nc(-c3cc(OC)c(OC)c(OC)c3)n(Cc3ccccc3)c(=O)c21 [No. 6]"
unit = "%"
endpoint_result = 2.1

[[record]]
compound = "COc1c(O)cc(-c2nc3sc4c(c3c(=O)n2-c2ccccc2)CCCC4)cc1O [No. 42]"
unit = "%"
endpoint_result = 3.2

[[record]]
compound = "COc1cc(-c2nc3sc4c(O)cccc4c3c(=O)n2Cc2ccc(Br)o2)cc(OC)c1OC [No. 122]"
unit = "%"
endpoint_result = 9.4

[[record]]
compound = "COc1cc(-c2nc3sc4c(c3c(=O)n2CC(C)C)C(Br)CCC4=O)cc(OC)c1OC (stereo not shown) [No. 135]"
unit = "%"
endpoint_result = 21.8

[[record]]
compound = "COc1cc(-c2nc3sc4c(OC(C)=O)cccc4c3c(=O)n2Cc2ccccc2)cc(OC)c1OC [No. 54]"
unit = "%"
endpoint_result = 24.6

[[record]]
compound = "COc1cc(-c2nc3sc4c(c3c(=O)n2-c2ccccc2)CCCC4)cc(OC)c1OC [No. 10]"
unit = "%"
endpoint_result = -4.4

[[record]]
compound = "COCCn1c(-c2cccs2)nc2sc3c(O)c(Br)ccc3c2c1=O [No. 148]"
unit = "%"
endpoint_result = 53.7

[[record]]
compound = "CCCCn1c(-c2cc(OC)c(OC)c(OC)c2)nc2sc3c(c2c1=O)CC(C)CC3=O (stereo not shown) [No. 692]"
unit = "%"
endpoint_result = 9.8

[[record]]
compound = "COc1cc(-c2nc3sc4c(c3c(=O)n2Cc2ccccc2)CCC(C=O)=C4Oc2ccccc2)cc(OC)c1OC [No. 4]"
unit = "%"
endpoint_result = -7.2

[[record]]
compound = "CCSC1=C(C=O)CCc2c1sc1nc(-c3ccc(OC)cc3)n(Cc3ccccc3)c(=O)c21 [No. 16]"
unit = "%"
endpoint_result = 75.7

[[record]]
compound = "CCCc1nc2sc3c(O)cccc3c2c(=O)n1Cc1ccc(Br)o1 [No. 105]"
unit = "%"
endpoint_result = 17.7

[[record]]
compound = "COc1cc(-c2nc3sc4c(OC)cccc4c3c(=O)n2CC(C)C)cc(OC)c1OC [No. 136]"
unit = "%"
endpoint_result = 3.5

[[record]]
compound = "CCCc1nc2sc3c(c2c(=O)n1Cc1ccco1)CCCC3=O [No. 102]"
unit = "%"
endpoint_result = 6.7

[[record]]
compound = "COCCn1c(-c2cc(OC)c(OC)c(OC)c2)nc2sc3c(c2c1=O)CCCC3 [No. 108]"
unit = "%"
endpoint_result = 0.8

[[record]]
compound = "COc1cc(-c2nc3sc4c(O)c(Br)ccc4c3c(=O)n2Cc2ccccc2)c(Br)c(OC)c1OC [No. 52]"
unit = "%"
endpoint_result = -2.4

[[record]]
compound = "COc1cccc(-c2nc3sc4c(c3c(=O)n2Cc2ccccc2)CCC(Br)(Br)C4=O)c1 [No. 81]"
unit = "%"
endpoint_result = 7.8

[[record]]
compound = "O=c1c2c3c(sc2nc(CO)n1Cc1ccccc1)CCCC3 [No. 28]"
unit = "%"
endpoint_result = 1.9

[[record]]
compound = "COc1cc(-c2nc3sc4c(c3c(=O)n2CC(C)C)CCCC4)cc(OC)c1OC [No. 113]"
unit = "%"
endpoint_result = 2.7

[[record]]
compound = "O=C(OCCn1c(-c2cccs2)nc2sc3c(c2c1=O)CCCC3)c1cccs1 [No. 69]"
unit = "%"
endpoint_result = -1.1

[[record]]
compound = "O=c1c2c3c(sc2nc(-c2ccccc2)n1Cc1ccccc1)CCCC3 [No. 56]"
unit = "%"
endpoint_result = 14.7

[[record]]
compound = "O=C1c2sc3nc(-c4ccccc4)n(Cc4ccccc4)c(=O)c3c2CCC1(Br)Br [No. 59]"
unit = "%"
endpoint_result = 17.6

[[record]]
compound = "COc1cccc(-c2nc3sc4c(c3c(=O)n2Cc2ccccc2)CCC(Br)C4=O)c1 (stereo not shown) [No. 80]"
unit = "%"
endpoint_result = 22.7


* * *

biological target: 17β-hydroxysteroid dehydrogenase type 2 (17β-HSD type 2) (Homo sapiens, UniProt P37059); construct: expressed in transfected cells; host or cells: MCF-7; experiment: Inhibition of 17β-HSD type 2 in MCF-7 cells stably expressing the isoenzyme (tritium labeled estradiol conversion, HPLC); format: cell-based; details: MCF7; 10 μM test compound; MCF-7 cells expressing 17β-HSD type 2; 2 nM tritium labeled estradiol; read-out: % Inhibition HSD2 10 μM
Sequence (P37059 whole entry): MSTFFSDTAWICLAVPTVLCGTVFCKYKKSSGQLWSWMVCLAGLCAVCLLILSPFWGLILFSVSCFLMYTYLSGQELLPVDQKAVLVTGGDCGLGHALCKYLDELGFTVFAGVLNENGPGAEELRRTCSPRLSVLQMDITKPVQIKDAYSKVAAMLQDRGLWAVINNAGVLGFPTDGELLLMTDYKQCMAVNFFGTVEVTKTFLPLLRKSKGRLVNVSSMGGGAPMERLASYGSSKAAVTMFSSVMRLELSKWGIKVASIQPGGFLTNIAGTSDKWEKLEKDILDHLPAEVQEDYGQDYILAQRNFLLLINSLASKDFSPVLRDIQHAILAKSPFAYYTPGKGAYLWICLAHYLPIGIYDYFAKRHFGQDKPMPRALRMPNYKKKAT
Listing of entries alongside the reported inhibition at 10 µM.
quantity: inhibition at 10 µM (%)

[[record]]
compound = "COc1ccc(-c2nc3sc4c(Oc5ccccc5)c(CO)ccc4c3c(=O)n2Cc2ccccc2)cc1"
quantity = "inhibition at 10 µM"
endpoint_result = 16.6

[[record]]
compound = "COc1cc(-c2nc3sc4c(c3c(=O)n2Cc2ccccc2)CCC(Br)C4=O)c(Br)c(OC)c1OC (centres unmarked)"
quantity = "inhibition at 10 µM"
endpoint_result = 59

[[record]]
compound = "COc1cc(-c2nc3sc4c(c3c(=O)n2Cc2ccccc2)CCC(Br)C4=O)cc(OC)c1OC (centres unmarked)"
quantity = "inhibition at 10 µM"
endpoint_result = 20.9

[[record]]
compound = "CCCc1nc2sc3c(c2c(=O)n1Cc1ccco1)CCCC3"
quantity = "inhibition at 10 µM"
endpoint_result = 30

[[record]]
compound = "COc1cc(-c2nc3sc4c(c3c(=O)n2-c2ccccc2)CCCC4)cc(OC)c1OC"
quantity = "inhibition at 10 µM"
endpoint_result = 23.7

